The following binders are shown together with reported Promega assay antagonist (EC50, ug/mL) values.
# ASSAYED SYSTEM: PD-L1 expressed on CHO cells (human, UniProt Q9NZQ7 19-290)
# Sequence (Q9NZQ7 19-290 limits assumed): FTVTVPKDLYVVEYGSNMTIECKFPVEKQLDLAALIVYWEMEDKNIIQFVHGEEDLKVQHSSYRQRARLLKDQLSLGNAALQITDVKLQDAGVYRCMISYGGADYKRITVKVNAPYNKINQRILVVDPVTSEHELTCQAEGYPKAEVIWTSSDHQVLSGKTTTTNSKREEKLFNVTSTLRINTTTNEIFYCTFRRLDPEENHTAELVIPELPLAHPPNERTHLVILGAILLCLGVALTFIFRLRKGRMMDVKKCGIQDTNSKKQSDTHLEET
# ASSAY NAME: cell-based or functional assay
PARAMETER MEASURED: Promega assay antagonist (EC50, ug/mL) (µg/mL)

BINDER: antibody A8 (antibody, V domains shown, Tested as full-length mAb made in CHO cells; also called L8H8) VH: QVQLVQSGAEVKKPGASVKVSCKASGYTFTSYGISWVRQAPGQGLEWMGWISAYNGSTNYAQKLQGRVTMTTDTSTSTAYMELRSLRSDDTAVFYCARDDRIAVADYYYYFGMDVWGQGTTVTVSS VL: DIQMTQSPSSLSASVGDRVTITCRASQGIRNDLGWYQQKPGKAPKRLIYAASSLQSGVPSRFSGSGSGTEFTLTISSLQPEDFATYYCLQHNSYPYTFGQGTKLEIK
PARAMETER MEASURED: Promega assay antagonist (EC50, ug/mL)
VALUE MEASURED: 0.621
//
BINDER: antibody A1 (antibody, V domains shown, Tested as full-length mAb made in CHO cells; also called L1H1) VH: QVQLVQSGAEVKKPGASVKVSCKASGFTFTSYDINWVRQATGQGLEWMGWMHPNSGITGYAQKFQGRVTMTRNTSISTAYMELSSLSSEDTAVYFCARYYYVSGSYDYWGQGTLVTVSS VL: EIVMTQSPATLSLSPGERATLSCWASQSVSSSYLSWYQQKPGQAPRLLIYGASTRATGIPARFSGSGSGTDFTLTISSLQPEDFAVYYCQQDYNLPYTFGQGTKLEIK
PARAMETER MEASURED: Promega assay antagonist (EC50, ug/mL)
VALUE MEASURED: 0.0415
//
BINDER: antibody A5 (antibody, V domains shown, Tested as full-length mAb made in CHO cells; also called L5H5) VH: QVQLVESGGGVVQPGRSLRLSCAASGFAFSSYGMHWVRQAPGKGLEWVALIWFDGNNKFYADSVKGRFTISRDNSKNTLYLQMNSLRAEDTAVYYCARDTTAASFDYWGQGTLVTVSS VL: EIVMTQSPATLSLSPGERATLSCRASQSVSSTYLSWYQQKPGQAPRLLIFGASTRATGIPARFSGSGSGTDFTLTISSLQPEDFAVYYCQQDYNLPPTFGPGTKVDIK
PARAMETER MEASURED: Promega assay antagonist (EC50, ug/mL)
VALUE MEASURED: 0.0985
